# MEASURED_ON: T1, human SIRPγ isoform 1 (human, UniProt Q9P1W8 29-147)
# T1 construct: also called Gamma; Human SIRPg
# ASSAY_TEXT: SPR, antibody on GLC chip
pKd: −log10 of the molar value.
# pKd per entry
MEASUREMENT_KIND: pKd

>>> recorded_result("antibody 135 variant, light chain Mut / heavy chain wt (antibody, V domains shown) VH: DVQLVESGGGVVRPGESLRLSCAASGFSFSIYAMSWVRQAPGEGLEWVSTIGADDTYYADSVKGRFTISRDNSKNTLYLQMNSLRAEDTAVYYCAKDSTVGWSGDFFDYWGLGTLVTVSS VL: EIVLTQSPATLSVSPGERVTLSCRASQNVRSDIAWYQQKPGQAPRLLIYAASSRDTGIPARFSGSGSGTDFTLTISSLQSEDFGVYYCQQYYDWPPFTFGGGTKVEIK")
9.28
>>> recorded_result("antibody 136 variant, light chain wt / heavy chain Mut (antibody, V domains shown) VH: EVQLVESGGGVVQPGRSLRLSCAASGFTFSSYDVNWVRQAPGKGLEWVSLISGSGEIIYYADSVKGRFTISRDNSKNTLYLQMNSLRAEDTAVYYCAKENNRYRFFDDWGQGTLVTVSS VL: ETVLTQSPGTLTLSPGERATLTCRASQSVYTYLAWYQEKPGQAPRLLIYGASSRATGIPDRFSGSGSGTEFTLTISSLQSEDFAVYYCQQYYDRPPLTFGGGTKVEIK")
7.78
>>> recorded_result("antibody 119 (antibody, V domains shown, also called AB119; S119) VH: DVQLLESGGGVVQPGGSLRLSCAASGFSFSNFAMTWVRQAPGEGLEWVSTIGSGDTYYADSVKGRFTISRDNSKNTLYLQMNSLRAEDTAVYYCAKDSTVSWSGDFFDYWGLGTLVTVSS VL: EIVLTQSPATLSVSPGERATFSCRASQNVKNDLAWYQQRPGQAPRLLIYAARIRETGIPERFSGSGSGTEFTLTITSLQSEDFAVYYCQQYYDWPPFTFGGGTKVEIK")
9.57
